System: MV-4-11
procedure_text: Proliferation assay (resazurin, leukemia cell lines), MV-4-11
Assay type: cell-based
run_conditions: Homo sapiens, MV4-11, read-out: 72 h Growth inhibition GI50, MV-4-11 cells
observation_type: log10 of GI50 (log10 of the value in nM)
Please interpret these as log10 of GI50 where GI50 is in nM.

System MV-4-11. Read-out log10 of GI50. Item Fc1cnc(Nc2ccc(N3CCN(CCN4CCOCC4)CC3)nc2)nc1-c1cnc2ccc(-c3ccccc3)cn12 . Report value. 1.75

System MV-4-11. Read-out log10 of GI50. Item Brc1ccc2ncc(-c3ccnc(Nc4ccc(N5CCCC5)nc4)n3)n2c1 . Report value. 1.57

System MV-4-11. Read-out log10 of GI50. Item CN1CCN(c2ccc(Nc3nccc(-c4cnc5ccc(-c6cnc(N)nc6)cn45)n3)cn2)CC1 . Report value. 2.26

System MV-4-11. Read-out log10 of GI50. Item CN1CCN(c2ccc(Nc3nccc(-c4cnc5ccc(-c6cccnc6)cn45)n3)cn2)CC1 . Report value. 1.46

System MV-4-11. Read-out log10 of GI50. Item CCN1CCN(Cc2ccc(Nc3nccc(-c4cnc5ccc(-c6ccccc6)cn45)n3)cn2)CC1 . Report value. 2.01

System MV-4-11. Read-out log10 of GI50. Item O=C1NCCC12CCN(c1ccc(Nc3nccc(-c4cnc5ccc(Br)cn45)n3)cn1)CC2 . Report value. 1.08

System MV-4-11. Read-out log10 of GI50. Item COc1ccc(-c2ccc3ncc(-c4ccnc(Nc5ccc(N6CCN(C)CC6)nc5)n4)n3c2)cn1 . Report value. 1.60

System MV-4-11. Read-out log10 of GI50. Item CCN1CCN(Cc2ccc(Nc3nccc(-c4cnc5ccc(Br)cn45)n3)cn2)CC1 . Report value. 1.58

System MV-4-11. Read-out log10 of GI50. Item Fc1cnc(Nc2ccc(N3CCOCC3)nc2)nc1-c1cnc2ccccn12 . Report value. 1.30

System MV-4-11. Read-out log10 of GI50. Item CCCNc1ccc(Nc2nccc(-c3cnc4ccc(-c5ccccc5)cn34)n2)cn1 . Report value. 1.89

System MV-4-11. Read-out log10 of GI50. Item CS(=O)(=O)N1CCN(c2ccc(Nc3nccc(-c4cnc5ccc(-c6cncnc6)cn45)n3)cn2)CC1 . Report value. 1.97

System MV-4-11. Read-out log10 of GI50. Item COC(=O)N1CCC(c2ccc(Nc3ncc(F)c(-c4cnc5ccc(-c6ccccc6)cn45)n3)cn2)CC1 . Report value. 2.53

System MV-4-11. Read-out log10 of GI50. Item CC(C)N1CCN(c2ccc(Nc3nccc(-c4cnc5ccc(Br)cn45)n3)cn2)CC1 . Report value. 1.59

System MV-4-11. Read-out log10 of GI50. Item COc1cc(F)cc(-c2ccc3ncc(-c4ccnc(Nc5ccc(N6CCN(C)CC6)nc5)n4)n3c2)c1 . Report value. 0.30

System MV-4-11. Read-out log10 of GI50. Item CC(=O)N1CCN(c2ccc(Nc3ncc(C)c(-c4cnc5ccccn45)n3)cn2)CC1 . Report value. 1.94

System MV-4-11. Read-out log10 of GI50. Item CCOc1ccc(Nc2ncc(F)c(-c3cnc4ccc(-c5ccccc5)cn34)n2)cn1 . Report value. 2.78

System MV-4-11. Read-out log10 of GI50. Item Cc1nc2ccc(F)cn2c1-c1ccnc(Nc2ccc(N3CCN(C)CC3)nc2)n1 . Report value. 1.89

System MV-4-11. Read-out log10 of GI50. Item c1ccc(-c2ccc3ncc(-c4ccnc(Nc5ccc(N6CCCC6)nc5)n4)n3c2)cc1 . Report value. 2.29

System MV-4-11. Read-out log10 of GI50. Item CC(C)N1CCN(c2ccc(Nc3nccc(-c4cnc5ccc(-c6ccc(F)nc6)cn45)n3)cn2)CC1 . Report value. 2.06

System MV-4-11. Read-out log10 of GI50. Item CS(=O)(=O)N1CCN(c2ccc(Nc3nccc(-c4cnc5ccc(-c6ccncc6)cn45)n3)cn2)CC1 . Report value. 0.00

System MV-4-11. Read-out log10 of GI50. Item CC(=O)N1CCN(c2ccc(Nc3nccc(-c4cnc5ccccn45)n3)cn2)CC1 . Report value. 1.43

System MV-4-11. Read-out log10 of GI50. Item CN1CCN(c2ccc(Nc3nccc(-c4cnc5ccccn45)n3)cn2)CC1 . Report value. 0.00

System MV-4-11. Read-out log10 of GI50. Item CCCNc1ccc(Nc2nccc(-c3cnc4ccc(-c5cnn(C(F)F)c5)cn34)n2)cn1 . Report value. 1.59

System MV-4-11. Read-out log10 of GI50. Item CC(=O)N1CCN(c2ccc(Nc3nccc(-c4cnc5ccc(-c6cn[nH]c6)cn45)n3)cn2)CC1 . Report value. 1.46

System MV-4-11. Read-out log10 of GI50. Item CC(C)N1CCN(c2ccc(Nc3nccc(-c4cnc5ccc(-c6cncnc6)cn45)n3)cn2)CC1 . Report value. 1.66

System MV-4-11. Read-out log10 of GI50. Item CN1CCN(c2ccc(Nc3nccc(-c4cnc5ccc(-c6cnn(C)c6)cn45)n3)nc2)CC1 [Comparator compound B, reference compound] . Report value. 0.85

System MV-4-11. Read-out log10 of GI50. Item c1ccc(-c2ccc3ncc(-c4ccnc(Nc5ccc(NC6CCOCC6)nc5)n4)n3c2)cc1 . Report value. 1.45

System MV-4-11. Read-out log10 of GI50. Item CC(=O)N1CCN(c2ccc(Nc3nccc(-c4cnc5ccc(-c6ccccc6)cn45)n3)cn2)CC1 . Report value. 1.08

System MV-4-11. Read-out log10 of GI50. Item Cc1cnc(Nc2ccc(N3CCN(C)CC3)nc2)nc1-c1cnc2ccccn12 . Report value. 1.51

System MV-4-11. Read-out log10 of GI50. Item CS(=O)(=O)N1CCN(c2ccc(Nc3nccc(-c4cnc5ccc(-c6cccnc6)cn45)n3)cn2)CC1 . Report value. 1.23

System MV-4-11. Read-out log10 of GI50. Item CS(=O)(=O)N1CCN(c2ccc(Nc3nccc(-c4cnc5ccc(-c6ccccc6)cn45)n3)cn2)CC1 . Report value. 0.78

* * *

assayed_system: CDK6/CyclinD3 (Homo sapiens, UniProt Q00534)
Sequence (Q00534 whole entry, species assumed): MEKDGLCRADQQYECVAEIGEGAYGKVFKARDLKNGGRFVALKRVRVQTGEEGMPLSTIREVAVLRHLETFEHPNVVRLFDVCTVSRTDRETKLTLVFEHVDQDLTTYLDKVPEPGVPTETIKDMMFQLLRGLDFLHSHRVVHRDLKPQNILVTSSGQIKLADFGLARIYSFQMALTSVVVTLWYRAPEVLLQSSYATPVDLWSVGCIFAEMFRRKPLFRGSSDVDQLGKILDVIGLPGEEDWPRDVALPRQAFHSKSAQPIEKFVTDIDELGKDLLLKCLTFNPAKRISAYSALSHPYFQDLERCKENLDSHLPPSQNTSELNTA
Sequence (P30281 whole entry partner, species assumed): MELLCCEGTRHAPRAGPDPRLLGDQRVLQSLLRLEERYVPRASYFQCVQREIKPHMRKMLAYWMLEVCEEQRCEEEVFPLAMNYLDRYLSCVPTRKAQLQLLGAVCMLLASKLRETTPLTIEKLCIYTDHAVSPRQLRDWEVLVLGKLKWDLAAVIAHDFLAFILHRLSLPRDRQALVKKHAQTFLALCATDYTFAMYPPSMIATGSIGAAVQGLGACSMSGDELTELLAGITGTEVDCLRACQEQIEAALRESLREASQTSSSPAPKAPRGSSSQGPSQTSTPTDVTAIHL
procedure_text: ADP Glo kinase assay, CDK6/CyclinD3
Type: biochemical
run_conditions: compound at 1 μM, read-out: Residual enzymatic activity (%) at 1 μM, CDK6 D3
For each entry below, report its remaining activity at 1 µM value.
A number alone suffices; assume %.

System CDK6/CyclinD3 (Homo sapiens, UniProt Q00534). Read-out remaining activity at 1 µM. Item CC(C)N1CCN(c2ccc(Nc3nccc(-c4cnc5ccc(-c6ccncc6)cn45)n3)cn2)CC1 . Report value. 52

System CDK6/CyclinD3 (Homo sapiens, UniProt Q00534). Read-out remaining activity at 1 µM. Item c1ccc(-c2ccc3ncc(-c4ccnc(Nc5ccc(N6CCC6)nc5)n4)n3c2)cc1 . Report value. 44

System CDK6/CyclinD3 (Homo sapiens, UniProt Q00534). Read-out remaining activity at 1 µM. Item CCS(=O)(=O)N1CCN(c2ccc(Nc3nccc(-c4cnc5ccc(-c6ccccc6)cn45)n3)cn2)CC1 . Report value. 100

System CDK6/CyclinD3 (Homo sapiens, UniProt Q00534). Read-out remaining activity at 1 µM. Item O=C1NCCC12CCN(c1ccc(Nc3nccc(-c4cnc5ccc(-c6cnn(C(F)F)c6)cn45)n3)cn1)CC2 . Report value. 97

System CDK6/CyclinD3 (Homo sapiens, UniProt Q00534). Read-out remaining activity at 1 µM. Item COC(=O)N1CCC(c2ccc(Nc3ncc(F)c(-c4cnc5ccc(-c6ccccc6)cn45)n3)cn2)CC1 . Report value. 61

System CDK6/CyclinD3 (Homo sapiens, UniProt Q00534). Read-out remaining activity at 1 µM. Item CN(C)c1ccc(Nc2nccc(-c3cnc4ccc(C5=CCNCC5)cn34)n2)cn1 . Report value. 81

System CDK6/CyclinD3 (Homo sapiens, UniProt Q00534). Read-out remaining activity at 1 µM. Item CN1CCN(c2ccc(Nc3ncc(F)c(-c4cnc5ccc(-c6ccccc6)cn45)n3)cn2)CC1 . Report value. 45

System CDK6/CyclinD3 (Homo sapiens, UniProt Q00534). Read-out remaining activity at 1 µM. Item Cc1cnc(Nc2ccc(N3CCN(C)CC3)nc2)nc1-c1cnc2ccc(-c3ccccc3)cn12 . Report value. 79

System CDK6/CyclinD3 (Homo sapiens, UniProt Q00534). Read-out remaining activity at 1 µM. Item CCCNc1ccc(Nc2nccc(-c3cnc4ccc(-c5ccccc5)cn34)n2)cn1 . Report value. 93

System CDK6/CyclinD3 (Homo sapiens, UniProt Q00534). Read-out remaining activity at 1 µM. Item CN(C)c1ccc(Nc2nccc(-c3cnc4ccc(-c5ccc(F)nc5)cn34)n2)cn1 . Report value. 81

System CDK6/CyclinD3 (Homo sapiens, UniProt Q00534). Read-out remaining activity at 1 µM. Item O=C1NCCC12CCN(c1ccc(Nc3nccc(-c4cnc5ccc(Br)cn45)n3)cn1)CC2 . Report value. 97

System CDK6/CyclinD3 (Homo sapiens, UniProt Q00534). Read-out remaining activity at 1 µM. Item COc1cc(F)cc(-c2ccc3ncc(-c4ccnc(Nc5ccc(N6CCN(C)CC6)nc5)n4)n3c2)c1 . Report value. 66

System CDK6/CyclinD3 (Homo sapiens, UniProt Q00534). Read-out remaining activity at 1 µM. Item COc1ccc(-c2ccc3ncc(-c4ccnc(Nc5ccc(N6CCN(C(C)=O)CC6)nc5)n4)n3c2)cn1 . Report value. 30

System CDK6/CyclinD3 (Homo sapiens, UniProt Q00534). Read-out remaining activity at 1 µM. Item O=C1NCCC12CCN(c1ccc(Nc3nccc(-c4cnc5ccc(-c6ccccc6)cn45)n3)cn1)CC2 . Report value. 73

System CDK6/CyclinD3 (Homo sapiens, UniProt Q00534). Read-out remaining activity at 1 µM. Item CCCNc1ccc(Nc2nccc(-c3cnc4ccc(-c5cnn(C(F)F)c5)cn34)n2)cn1 . Report value. 71

System CDK6/CyclinD3 (Homo sapiens, UniProt Q00534). Read-out remaining activity at 1 µM. Item CC(C)N1CCN(c2ccc(Nc3nccc(-c4cnc5ccc(-c6cncnc6)cn45)n3)cn2)CC1 . Report value. 66
